- EXPERIMENTAL TARGET: UniProt:P0DTD1
- EXPERIMENT: Inhibition of recombinant SARS-CoV-2 main protease at 1 uM using Dabcyl-KTSAVLQSGFRKM{Glu(Edans)} as substrate preincubated for 10 mins followed by substrate addition and measured at 60 secs interval for 30 mins by fluorogenic assay relative to control
- MEASUREMENT CONTEXT: time 40.0 min
Binary classification by inhibition, with 20% as an inclusive lower bound for label 1; all other cases are label 0.

CPD SMILES	CATEGORY
Cc1cccc(C)c1OCC(=O)N[C@@H](Cc1ccccc1)[C@@H](O)C[C@H](Cc1ccccc1)NC(=O)[C@H](C(C)C)N1CCCNC1=O	label 1
O=c1c2ccccc2[se]n1-c1ccccc1	label 1
CC(C)c1nc(CN(C)C(=O)N[C@H](C(=O)N[C@@H](Cc2ccccc2)C[C@H](O)[C@H](Cc2ccccc2)NC(=O)OCc2cncs2)C(C)C)cs1	label 1
O=C(Nc1cc(Cl)c(Cl)cc1Cl)c1[nH]cnc1C(=O)N1CCOCC1	label 0
Cc1nc(C(=O)N2CCOCC2)c(C(=O)Nc2ccc(Cl)cc2)[nH]1	label 1
Cc1nc(C(=O)N2CCOCC2)c(C(=O)Nc2ccc(Cl)c(Cl)c2)[nH]1	label 1
Cc1nc(C(=O)N2CCOCC2)c(C(=O)Nc2cc(Cl)ccc2Cl)[nH]1	label 1
O=C(Nc1ccc(Cl)cc1)c1[nH]cnc1C(=O)N1CCOCC1	label 0
O=C(Nc1cc(Cl)ccc1Cl)c1[nH]cnc1C(=O)N1CCOCC1	label 0

====

Below, each entry is listed with its recorded inhibition.
- EXPERIMENTAL TARGET: Replicase polyprotein 1ab (Severe acute respiratory syndrome coronavirus 2)
- EXPERIMENT: Inhibition of recombinant SARS-CoV-2 main protease at 1 uM using Dabcyl-KTSAVLQSGFRKM{Glu(Edans)} as substrate preincubated for 10 mins followed by substrate addition and measured at 60 secs interval for 30 mins by fluorogenic assay relative to control
- MEASUREMENT CONTEXT: time 40.0 min

CPD SMILES	EXPERIMENTAL TARGET	inhibition / %
O=C(Nc1ccccc1)c1[nH]cnc1C(=O)N1CCOCC1	Replicase polyprotein 1ab (Severe acute respiratory syndrome coronavirus 2)	15
O=C(Nc1ccc(Cl)c(Cl)c1)c1[nH]cnc1C(=O)N1CCOCC1	Replicase polyprotein 1ab (Severe acute respiratory syndrome coronavirus 2)	33
Cc1nc(C(=O)N2CCOCC2)c(C(=O)Nc2cc(Cl)c(Cl)cc2Cl)[nH]1	Replicase polyprotein 1ab (Severe acute respiratory syndrome coronavirus 2)	39
Cc1nc(C(=O)N2CCOCC2)c(C(=O)Nc2ccccc2)[nH]1	Replicase polyprotein 1ab (Severe acute respiratory syndrome coronavirus 2)	24

====

- Test system: 16HBE14o-
- EXPERIMENT: Cytotoxicity against human 16HBE14o- cells assessed as reduction in cell viability at 100 uM measured after 24 hrs by MTT assay
- Type: toxicity, cell-based

CPD SMILES	EXPERIMENTAL TARGET	Activity
Cc1nc(C(=O)N2CCOCC2)c(C(=O)Nc2ccccc2)[nH]1	16HBE14o-	Non-toxic
Cc1nc(C(=O)N2CCOCC2)c(C(=O)Nc2cc(Cl)ccc2Cl)[nH]1	16HBE14o-	Non-toxic
Cc1nc(C(=O)N2CCOCC2)c(C(=O)Nc2ccc(Cl)cc2)[nH]1	16HBE14o-	Non-toxic
O=C(Nc1ccc(Cl)c(Cl)c1)c1[nH]cnc1C(=O)N1CCOCC1	16HBE14o-	Non-toxic
Cc1nc(C(=O)N2CCOCC2)c(C(=O)Nc2cc(Cl)c(Cl)cc2Cl)[nH]1	16HBE14o-	Non-toxic
